Collected IC50 for Histone deacetylase 5 (Homo sapiens) across several studies; compounds listed below.
Each record is given 1.0 if its reported IC50 is strictly below 8 µM. Records at or above 8 µM are given 0.0.

| SMILES DATA | MEASURED TARGET | DISCRETE LABEL |
| --- | --- | --- |
| O=C(/C=C/c1ccc(O)c(O)c1)Cc1ccccc1 | Histone deacetylase 5 (Homo sapiens) | 0.0 |
| O=C(CCc1ccc(O)c(O)c1)Cc1ccccc1 | Histone deacetylase 5 (Homo sapiens) | 0.0 |
| O=C(CCCCc1ccccc1)CCc1ccc(O)c(O)c1 | Histone deacetylase 5 (Homo sapiens) | 1.0 |
| O=C(/C=C/c1ccc(O)cc1)CCCCc1ccccc1 | Histone deacetylase 5 (Homo sapiens) | 0.0 |
| Cc1nc(N(C)c2ccc(Oc3ccc(C(=O)NO)cn3)cc2)c2ccccc2n1 | Histone deacetylase 5 (Homo sapiens) | 0.0 |
| CS(=O)(=O)N(Cc1ccc(-c2nnc(C(F)(F)F)o2)cn1)c1cccc(Cl)c1 | Histone deacetylase 5 (Homo sapiens) | 0.0 |
| O=C(/C=C/c1ccc(O)c(O)c1)CCCCc1ccccc1 | Histone deacetylase 5 (Homo sapiens) | 0.0 |
| O=C(CCCCc1ccccc1)CCc1cccc(O)c1 | Histone deacetylase 5 (Homo sapiens) | 0.0 |
| O=C(CCCCc1ccccc1)CCc1ccc(O)c(F)c1 | Histone deacetylase 5 (Homo sapiens) | 0.0 |
| O=C(/C=C/c1cc(O)c(O)c(O)c1)CCCCc1ccccc1 | Histone deacetylase 5 (Homo sapiens) | 1.0 |
| O=C(/C=C/c1cccc(O)c1O)CCCCc1ccccc1 | Histone deacetylase 5 (Homo sapiens) | 0.0 |

* * *

Collected IC50 for Histone deacetylase 5 (Homo sapiens, UniProt Q9UQL6) across several studies; molecules listed below.
READOUT TYPE: IC50

| SMILES DATA | OBSERVED MEASUREMENT |
| --- | --- |
| O=C(/C=C/c1ccc(O)c(O)c1)CCCc1ccccc1 | 12.6 µM |
| O=C(/C=C/c1ccc(O)c([N+](=O)[O-])c1)CCCCc1ccccc1 | 36.1 µM |
| O=C(CCCCc1ccccc1)CCc1cccc(O)c1O | 4.8 µM |
| O=C(/C=C/c1ccccc1)CCCCc1ccccc1 | > 40 µM |
| COc1cc(/C=C/C(=O)CCCCc2ccccc2)ccc1O | > 40 µM |
| O=C(CCCCc1ccccc1)CCc1ccccc1 | > 40 µM |
| O=C(CCCCc1ccccc1)CCc1ccc(O)cc1 | > 40 µM |
| CS(=O)(=O)N(Cc1ccc(C(=O)NN)cn1)c1cccc(Cl)c1 | > 20 µM |
| CCCCN(Cc1ccc(C(=O)NO)cc1)C(=O)CCCCn1cc(COc2cccc(Cc3cnc(NC(=O)CSc4nc(C)cc(C)n4)s3)c2)nn1 | > 6 µM |
